FYI, the data here is from patent US10351575B2.

# measuredTarget: Axl (Homo sapiens (Human), UniProt P30530)
# Sequence (P30530 26-894): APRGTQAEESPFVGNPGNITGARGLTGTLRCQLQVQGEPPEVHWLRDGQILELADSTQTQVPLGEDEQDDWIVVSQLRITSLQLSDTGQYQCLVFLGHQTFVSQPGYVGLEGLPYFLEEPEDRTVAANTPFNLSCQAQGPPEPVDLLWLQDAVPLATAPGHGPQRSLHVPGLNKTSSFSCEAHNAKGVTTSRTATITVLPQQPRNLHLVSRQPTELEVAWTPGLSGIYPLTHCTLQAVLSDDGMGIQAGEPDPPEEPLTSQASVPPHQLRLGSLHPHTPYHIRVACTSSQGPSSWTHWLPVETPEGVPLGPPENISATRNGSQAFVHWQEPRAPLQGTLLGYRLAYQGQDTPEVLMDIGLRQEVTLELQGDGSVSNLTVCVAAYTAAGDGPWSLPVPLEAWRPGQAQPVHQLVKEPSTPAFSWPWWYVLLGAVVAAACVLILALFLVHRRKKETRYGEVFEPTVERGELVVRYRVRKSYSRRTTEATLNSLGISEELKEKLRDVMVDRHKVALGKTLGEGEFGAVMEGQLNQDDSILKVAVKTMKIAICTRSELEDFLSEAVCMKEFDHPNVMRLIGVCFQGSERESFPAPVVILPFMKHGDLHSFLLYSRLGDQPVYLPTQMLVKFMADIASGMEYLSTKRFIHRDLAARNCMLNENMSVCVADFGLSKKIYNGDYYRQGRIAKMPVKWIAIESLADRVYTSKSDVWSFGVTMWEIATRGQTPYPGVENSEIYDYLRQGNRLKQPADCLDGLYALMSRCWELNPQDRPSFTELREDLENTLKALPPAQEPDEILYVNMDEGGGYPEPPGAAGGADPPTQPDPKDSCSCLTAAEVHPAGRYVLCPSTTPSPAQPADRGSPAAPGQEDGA
# testDescription: KinaseProfiler off-target kinase profiling
# Assay type: biochemical
# details: 10 μM, ATP near Km
quantity: Avg. POC (POC)

INSERT INTO measurements (compound, experimentalvalue) VALUES
  ('Cc1c(-c2ccc(=O)n(C)c2)nn(-c2ccccc2)c1NC(=O)NC1CN(CC(F)(F)F)Cc2ccccc21 (stereo not shown)', 107),
  ('Cc1c(-c2cnn(C)c2)nn(-c2ccccc2)c1NC(=O)N[C@H]1CCCc2ccccc21', 113.5),
  ('COCc1ccc2c(c1)C(NC(=O)Nc1c(C)c(-c3cnn(C)c3)nn1-c1ccccc1)COC2 (stereo not shown)', 119.5),
  ('Cc1c(-c2cnn(C)c2)nn(-c2ccccc2)c1NC(=O)NC1CCOc2cc(F)ccc21 (stereo not shown)', 106);

###

# measuredTarget: UniProt:Q8TF76
# Sequence (Q8TF76 whole entry): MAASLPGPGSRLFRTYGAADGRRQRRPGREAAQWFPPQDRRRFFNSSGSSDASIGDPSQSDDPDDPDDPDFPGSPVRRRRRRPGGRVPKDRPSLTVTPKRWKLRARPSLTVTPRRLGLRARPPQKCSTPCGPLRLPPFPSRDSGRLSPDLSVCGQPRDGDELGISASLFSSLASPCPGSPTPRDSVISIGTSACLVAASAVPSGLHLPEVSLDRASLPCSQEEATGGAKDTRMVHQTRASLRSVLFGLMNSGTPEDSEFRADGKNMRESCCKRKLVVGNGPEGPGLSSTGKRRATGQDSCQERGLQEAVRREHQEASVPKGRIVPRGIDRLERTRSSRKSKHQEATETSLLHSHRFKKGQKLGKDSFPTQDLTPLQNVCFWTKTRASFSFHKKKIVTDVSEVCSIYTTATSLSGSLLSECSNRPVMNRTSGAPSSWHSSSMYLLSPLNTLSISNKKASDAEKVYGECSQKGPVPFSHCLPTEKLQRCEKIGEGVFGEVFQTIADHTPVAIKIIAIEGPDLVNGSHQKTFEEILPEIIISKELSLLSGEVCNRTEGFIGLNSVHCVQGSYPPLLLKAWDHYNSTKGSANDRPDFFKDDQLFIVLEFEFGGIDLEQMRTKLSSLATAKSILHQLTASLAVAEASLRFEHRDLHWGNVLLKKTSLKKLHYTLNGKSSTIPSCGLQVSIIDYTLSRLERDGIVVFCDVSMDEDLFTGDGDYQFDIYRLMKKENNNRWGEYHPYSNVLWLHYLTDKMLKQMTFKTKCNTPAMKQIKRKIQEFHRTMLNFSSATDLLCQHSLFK
# testDescription: KinaseProfiler off-target kinase profiling
# Format: biochemical
# details: 10 μM, ATP near Km
quantity: Avg. POC (POC)

INSERT INTO results (molecule, experimentalvalue) VALUES
  ('Cc1c(-c2cnn(C)c2)nn(-c2ccccc2)c1NC(=O)NC1CCOc2cc(F)ccc21 (stereo not shown) [Example 12]', 97),
  ('Cc1c(-c2cnn(C)c2)nn(-c2ccccc2)c1NC(=O)N[C@H]1CCCc2ccccc21 [Example 2]', 92.5),
  ('COCc1ccc2c(c1)C(NC(=O)Nc1c(C)c(-c3cnn(C)c3)nn1-c1ccccc1)COC2 (stereo not shown) [Example 32]', 94),
  ('Cc1c(-c2ccc(=O)n(C)c2)nn(-c2ccccc2)c1NC(=O)NC1CN(CC(F)(F)F)Cc2ccccc21 (stereo not shown) [Example 26]', 92);

###

Listed next: entries and their corresponding Avg. POC.
# measuredTarget: ErbB4 (Homo sapiens (Human))
# Sequence (Q15303 26-1308): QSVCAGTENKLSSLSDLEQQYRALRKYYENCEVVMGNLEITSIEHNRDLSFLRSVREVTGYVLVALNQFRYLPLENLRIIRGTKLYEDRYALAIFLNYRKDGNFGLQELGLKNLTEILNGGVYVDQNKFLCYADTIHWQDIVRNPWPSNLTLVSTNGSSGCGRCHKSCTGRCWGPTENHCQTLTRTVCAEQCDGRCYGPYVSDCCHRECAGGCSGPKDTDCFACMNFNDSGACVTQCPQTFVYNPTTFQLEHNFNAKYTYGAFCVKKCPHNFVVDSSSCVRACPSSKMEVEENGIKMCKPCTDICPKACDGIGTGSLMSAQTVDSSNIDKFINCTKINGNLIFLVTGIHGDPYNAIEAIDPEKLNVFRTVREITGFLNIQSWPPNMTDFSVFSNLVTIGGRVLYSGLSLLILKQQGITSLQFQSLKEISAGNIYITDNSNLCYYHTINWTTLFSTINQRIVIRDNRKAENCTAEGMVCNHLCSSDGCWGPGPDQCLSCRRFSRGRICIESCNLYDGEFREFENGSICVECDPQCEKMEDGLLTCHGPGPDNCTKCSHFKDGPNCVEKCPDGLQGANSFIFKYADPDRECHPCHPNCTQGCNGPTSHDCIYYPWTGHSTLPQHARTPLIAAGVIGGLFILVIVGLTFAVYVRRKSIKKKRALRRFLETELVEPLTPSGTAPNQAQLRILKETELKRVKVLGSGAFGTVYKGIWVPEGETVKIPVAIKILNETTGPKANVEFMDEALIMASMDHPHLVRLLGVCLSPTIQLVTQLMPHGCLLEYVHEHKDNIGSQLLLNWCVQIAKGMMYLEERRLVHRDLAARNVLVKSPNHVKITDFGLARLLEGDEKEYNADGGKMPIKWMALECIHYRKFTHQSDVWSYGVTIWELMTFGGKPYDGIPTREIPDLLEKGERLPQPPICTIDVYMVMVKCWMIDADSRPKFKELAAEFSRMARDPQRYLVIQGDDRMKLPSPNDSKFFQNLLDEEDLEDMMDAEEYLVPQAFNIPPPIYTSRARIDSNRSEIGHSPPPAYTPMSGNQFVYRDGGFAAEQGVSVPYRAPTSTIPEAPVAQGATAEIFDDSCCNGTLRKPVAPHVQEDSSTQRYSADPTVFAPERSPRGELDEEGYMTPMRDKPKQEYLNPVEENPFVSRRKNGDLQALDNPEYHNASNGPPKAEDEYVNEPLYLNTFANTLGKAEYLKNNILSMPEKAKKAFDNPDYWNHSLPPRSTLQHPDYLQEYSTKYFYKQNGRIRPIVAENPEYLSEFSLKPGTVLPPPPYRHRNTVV
# testDescription: KinaseProfiler off-target kinase profiling
# Type: biochemical
# details: 10 μM, ATP near Km
# Experimental: Representative compounds (Examples 12, 32, 26 and 2) of the invention were tested for off-target kinase activity at a concentration of 10 μM by Millipore, Inc. in their KinaseProfiler™ service against all the kinases available in their full kinase panel. Compounds were run in duplicate at a concentration of ATP near the Km for each individual kinase according to Millipore's specifications. […]
quantity: Avg. POC

INSERT INTO measurements (compound, experimentalvalue) VALUES
  ('Cc1c(-c2cnn(C)c2)nn(-c2ccccc2)c1NC(=O)N[C@H]1CCCc2ccccc21', '148 POC'),
  ('COCc1ccc2c(c1)C(NC(=O)Nc1c(C)c(-c3cnn(C)c3)nn1-c1ccccc1)COC2 (stereo not shown)', '108.5 POC'),
  ('Cc1c(-c2cnn(C)c2)nn(-c2ccccc2)c1NC(=O)NC1CCOc2cc(F)ccc21 (stereo not shown)', '122 POC'),
  ('Cc1c(-c2ccc(=O)n(C)c2)nn(-c2ccccc2)c1NC(=O)NC1CN(CC(F)(F)F)Cc2ccccc21 (stereo not shown)', '115.5 POC');

###

# measuredTarget: UniProt:Q15375
# Sequence (Q15375 28-998): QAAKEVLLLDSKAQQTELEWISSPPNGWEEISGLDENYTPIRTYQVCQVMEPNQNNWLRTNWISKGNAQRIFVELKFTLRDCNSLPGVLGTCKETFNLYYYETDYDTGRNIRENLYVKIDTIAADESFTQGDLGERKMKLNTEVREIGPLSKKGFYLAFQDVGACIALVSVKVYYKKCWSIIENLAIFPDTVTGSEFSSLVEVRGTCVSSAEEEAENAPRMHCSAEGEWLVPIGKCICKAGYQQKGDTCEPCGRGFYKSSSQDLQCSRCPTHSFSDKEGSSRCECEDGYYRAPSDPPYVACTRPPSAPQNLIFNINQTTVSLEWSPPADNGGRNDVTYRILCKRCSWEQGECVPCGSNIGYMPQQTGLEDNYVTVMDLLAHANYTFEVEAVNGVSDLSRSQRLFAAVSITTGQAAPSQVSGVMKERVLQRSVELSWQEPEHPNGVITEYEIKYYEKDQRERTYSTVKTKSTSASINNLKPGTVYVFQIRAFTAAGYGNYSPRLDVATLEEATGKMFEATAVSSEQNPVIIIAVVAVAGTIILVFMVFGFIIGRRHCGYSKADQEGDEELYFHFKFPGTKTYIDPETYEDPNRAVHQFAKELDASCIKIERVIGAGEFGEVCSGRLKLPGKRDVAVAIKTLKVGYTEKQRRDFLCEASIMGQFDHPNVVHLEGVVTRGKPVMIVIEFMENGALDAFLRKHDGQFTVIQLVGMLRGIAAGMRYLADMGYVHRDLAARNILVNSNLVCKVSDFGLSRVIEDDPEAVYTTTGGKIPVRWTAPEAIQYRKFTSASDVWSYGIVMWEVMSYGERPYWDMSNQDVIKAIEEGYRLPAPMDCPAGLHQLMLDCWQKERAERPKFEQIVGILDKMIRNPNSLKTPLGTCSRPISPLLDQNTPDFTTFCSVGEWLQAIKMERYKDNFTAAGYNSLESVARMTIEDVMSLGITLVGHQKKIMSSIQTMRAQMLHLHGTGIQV
# testDescription: KinaseProfiler off-target kinase profiling
# Type: biochemical
# details: 10 μM, ATP near Km
Listed next: entries and their corresponding Avg. POC.
quantity: Avg. POC

INSERT INTO results (compound, quantity, experimentalvalue) VALUES
  ('COCc1ccc2c(c1)C(NC(=O)Nc1c(C)c(-c3cnn(C)c3)nn1-c1ccccc1)COC2 (stereo not shown) [Example 32]', 'Avg. POC', '100.5 POC'),
  ('Cc1c(-c2ccc(=O)n(C)c2)nn(-c2ccccc2)c1NC(=O)NC1CN(CC(F)(F)F)Cc2ccccc21 (stereo not shown) [Example 26]', 'Avg. POC', '108 POC'),
  ('Cc1c(-c2cnn(C)c2)nn(-c2ccccc2)c1NC(=O)NC1CCOc2cc(F)ccc21 (stereo not shown) [Example 12]', 'Avg. POC', '96.5 POC'),
  ('Cc1c(-c2cnn(C)c2)nn(-c2ccccc2)c1NC(=O)N[C@H]1CCCc2ccccc21 [Example 2]', 'Avg. POC', '116 POC');
